test system: HCT-15 colon; test: NCI-60 one-dose screen, 48 h (100 = growth as untreated, 0 = no growth, -100 = all killed); settings: 10 µM unless noted
This is part of a sample that, as a whole, favours compounds with a hit. Of some 83,000 tested, about 20% had one in any assay. The source made the active and inactive calls. Rule for the calls: active = growth percent below 10; inactive = the rest.
Recorded growth values for a group of molecules are listed next.

{"columns": ["molecule", "growth"],
 "data": [
  ["CCOC(=O)n1cnc2c(Cl)ncnc21", "112% (inactive)"],
  ["C[C@@H]1CC2C3C[C@H](F)C4=CC(=O)C=C[C@]4(C)[C@@]3(F)[C@@H](O)C[C@]2(C)[C@@]1(O)C(=O)CO (stereo not given in full)", "101% (inactive)"],
  ["COC(OC)C1(c2ccccc2)NC(=O)NC1=O (stereo not given)", "110% (inactive)"],
  ["CC1(C)CC(=O)C2=C(C1)OC1=C(C(=O)CC(C)(C)C1)C2c1ccc(OCc2cn(-c3ccc(F)cc3F)nn2)cc1", "105% (inactive)"],
  ["O=S(=O)(Nc1cccc2cc(OS(=O)(=O)c3ccccc3)ccc12)c1ccccc1", "34.4% (inactive)"],
  ["CCCCCCCCN(CCCCCCCC)CC(O)c1cc(-c2ccccc2)nc2ccc(OC)cc12 (stereo not given)", "10.7% (inactive)"],
  ["N#Cc1c(N)nc(Cl)c(C#N)c1C(=O)c1ccccc1", "18.4% (inactive)"],
  ["CCC1S/C(=N\\N=C(/C)c2ccco2)N(c2ccccc2)C1=O (stereo not given)", "118% (inactive)"],
  ["Cc1cc(N2CCOCC2)nc(N(CCNc2ccnc3cc(Cl)ccc23)Cc2ccco2)n1", "35.8% (inactive)"],
  ["COc1ccc(/C=C/C(=O)c2ccc(Oc3ncnc4ccccc34)cc2)cc1OC", "24.3% (inactive)"]
]}

====

test system: OVCAR-3 ovarian; experiment: NCI-60 one-dose screen, 48 h; settings: 10 µM unless noted
The panel holds about 83,000 compounds, 20% with a hit somewhere; the sample as a whole holds those more often. Active and inactive are the calls of the source. How the source made its calls: active means growth percent below 10; inactive means the rest.
Labels: Yes for active, No for inactive

{"columns": ["molecule", "class"],
 "data": [
  ["Clc1ccc2c(NCCNc3nc(Cl)nc4ccccc34)ccnc2c1", "Yes"],
  ["C=CCOc1ccc(/C(Cl)=N/N=C(\\Cl)c2cc(OC)c(OC)c(OC)c2)cc1", "No"],
  ["CCOC(=O)c1noc2c1CCc1c-2cn(Cc2ccc(OC)cc2)c1-c1cc(OC)c(OC)c(OC)c1", "Yes"],
  ["N#CC(C#N)=C(C#N)c1c[nH]c2ccccc12", "No"],
  ["CCOc1ccc(NC2=C(Cl)C(=O)c3ccccc3C2=O)cc1", "No"],
  ["O[C@@H]1CCO[C@H](c2ccc3ccccc3c2)C1", "No"],
  ["CC1=C2C(=C[C@@](C)(CO)[C@@H]2OC(=O)N(C)CCN(C)C(=O)OC(C)(C)C)C(=O)[C@](C)(O)C12CC2", "Yes"],
  ["CC(Cc1cccc(C(F)(F)F)c1)NCCOC(=O)c1ccccc1 (stereo not given)", "No"],
  ["c1ccc(OCC[P+](c2ccccc2)(c2ccccc2)c2ccccc2)cc1", "Yes"],
  ["CN(C)CCCOc1c(Br)cc(/C=C/C(=O)N(C)CCc2cc(Br)c(OCCCN(C)C)c(Br)c2)cc1Br", "No"]
]}

====

test system: HOP-92 NSCLC; assay: NCI-60 one-dose screen, 48 h (100 = growth as untreated, 0 = no growth, -100 = all killed); conditions: 10 µM unless noted
The panel holds about 83,000 compounds, 20% with a hit somewhere; the sample as a whole holds those more often.
Returns one of True or False; True when growth is >= 80%.

{"columns": ["input.smiles", "class"],
 "data": [
  ["Cc1cc(O[C@@H]2O[C@@H](C)[C@H](O)[C@@H](O)[C@H]2O)c2c3c(c(O[C@@H]4O[C@@H](C)[C@H](O)[C@@H](O)[C@H]4O)cc2c1)C(=O)c1c(O)cccc1C3=O", "False"],
  ["Cc1cc2nc(-c3c(N)ncc(C#N)c3-c3ccc(Cl)cc3)[nH]c2cc1C", "False"],
  ["COc1ccc(-c2nn(-c3ccc(NC(=O)c4cc(C(F)(F)F)cc(C(F)(F)F)c4)cc3)cc2-c2ccncc2)cc1Cl", "False"],
  ["O=c1cc(Cl)[nH]c(=O)[nH]1", "True"],
  ["Cc1ccc(-c2cn3cc([N+](=O)[O-])ccc3n2)cc1", "True"]
]}

====

test system: HCT-15 colon; assay: NCI-60 one-dose screen, 48 h; details: 10 µM unless noted
About 83,000 compounds went through this panel and 20% of them were active in at least one assay; those are over-represented in the sample as a whole. Calls of active or inactive are those of the source. How the source made its calls: active means growth percent below 10; inactive means the rest.
Labels: active, inactive

{"columns": ["compound", "target.system", "class"],
 "data": [
  ["O=S(c1ccccc1)c1ccc2nnnn2n1 (stereo not given)", "HCT-15 colon", "inactive"],
  ["O=c1c(-c2ccc3c(c2)OCO3)coc2c(CO)c(O)ccc12", "HCT-15 colon", "inactive"],
  ["O=C(O)c1ccc(-n2cc(/C=N/Nc3ccccc3F)c(-c3ccc(O)cc3)n2)cc1", "HCT-15 colon", "inactive"],
  ["CC(C)CNCC(=O)Nc1ccc(Cc2ccc(NC(=O)CNCC(C)C)cc2)cc1", "HCT-15 colon", "inactive"],
  ["C=C1C(=O)O[C@H]2[C@H]1CC/C(COC(=O)c1ccc(C#N)cc1)=C\\CC[C@@]1(C)O[C@@H]21", "HCT-15 colon", "active"],
  ["COc1cc2nc(C(=O)N3CCCCC3)cc(Nc3ccccc3)c2cc1OC", "HCT-15 colon", "inactive"],
  ["C[C@]12CC[C@@H]3c4ccc(O)c(N)c4CC[C@H]3[C@@H]1CC[C@@H]2O", "HCT-15 colon", "inactive"],
  ["S=c1ssnc1-c1ccccn1", "HCT-15 colon", "inactive"],
  ["CN(C)c1ncc(C#Cc2c(F)cccc2F)c2ccccc12", "HCT-15 colon", "inactive"],
  ["FC(F)(F)c1cccc([Si](F)(c2cccc(C(F)(F)F)c2)c2cccc(C(F)(F)F)c2)c1", "HCT-15 colon", "inactive"]
]}

====

Recorded growth values for a group of molecules are listed next.
tested on: MDA-MB-435 melanoma; assay: NCI-60 one-dose screen, 48 h (100 = growth as untreated, 0 = no growth, -100 = all killed); conditions: 10 µM unless noted
This is part of a sample that, as a whole, favours compounds with a hit. Of some 83,000 tested, about 20% had one in any assay.

{"columns": ["molecule", "growth, %"],
 "data": [
  ["O=C(NCCNc1nccc(-c2c(-c3cccc(O)c3)nc3sccn23)n1)Nc1cc(C(F)(F)F)cc(C(F)(F)F)c1", 9.9],
  ["COc1ccc(OCC(O)CN2CCN(c3ccc(Cl)cc3)CC2)cc1 (centres undefined)", 106],
  ["O=C1COc2ccccc2C(=O)N1CCCCNc1ccccc1", 98.1],
  ["COc1cc(-c2nc3ccccc3s2)ccc1OCc1nc2n(n1)S(=O)(=O)c1ccccc1N2c1ccccc1", 107],
  ["COc1cc(NC(C)CCCN2C(=O)c3ccccc3C2=O)c2nccc(C)c2c1OC (centres undefined)", 104],
  ["O=C(Nc1cccc(-n2ccc3c(NC(=O)c4ccccc4)ncnc32)c1)Nc1ccc(Cl)c(C(F)(F)F)c1", -7.53],
  ["CC(C)[C@@H]1NC(=O)[C@]2(C)CSC(=N2)c2ccnc(c2)CNC(=O)C[C@@H](/C=C/CCS)OC1=O", 5.07],
  ["Nc1ncnc2c1c(-c1ccc(Oc3ccccc3)cc1)nn2C[C@H]1SSC[C@@H]1O", -92.9],
  ["O=C1CCC(c2c(O)cc(O)c3c(=O)c(O)c(-c4ccc(O)c(O)c4)oc23)N1 (centres undefined)", 110]
]}

====

Recorded growth values for a group of compounds are listed next.
system: NCI-H322M lung; test: NCI-60 one-dose screen, 48 h (100 = growth as untreated, 0 = no growth, -100 = all killed); conditions: 10 µM unless noted
The panel holds about 83,000 compounds, 20% with a hit somewhere; the sample as a whole holds those more often.

{"columns": ["compound", "growth (%)"],
 "data": [
  ["O=c1c2ccccc2[nH]n1Cc1ccc2c(c1)OCO2", 97.6],
  ["CCCCNc1cc(C(=O)O)cc(S(N)(=O)=O)c1Oc1ccccc1", 101],
  ["CN(C)c1ccc(/C=N/N=C(N)N)cc1", 99.4],
  ["CC12CCC3C(CCC4CC(O)CCC43C)C1C/C(=C/O)C(=O)O2 (stereo unspecified)", 107],
  ["Cc1ccc(NC(=O)CN2CCOCC2)cc1Cl", 93.4],
  ["Cc1ccccc1C[P+](c1ccccc1)(c1ccccc1)c1ccccc1", 57.7]
]}

Numbers sourced from PubChem BioAssay (NCI).
